Hello, the source for this data is ChEMBL document CHEMBL1201862, in case you need it.

# Tested on: OVCAR-3
# measurement description: NCI tumour cell line growth inhibition, 48 h
Calls of active or inactive are those of the source. Rule as the data show it: active = GI50 up to about 1.1 µM and inactive = higher.
reported property: GI50

Please fill in: GI50 reported for N=C(N)NCCCC(=O)O = > 100 µM (inactive)

The recorded GI50 for entry O=[N+]([O-])c1ccc(/C=N/n2c(S)nnc2CCc2nnc(S)n2/N=C/c2ccc([N+](=O)[O-])o2)o1 equals 24.6 µM (inactive)

The measured GI50 associated with O=P(Nc1ccccc1)(Oc1ccccc1)N1CCN(c2ccccc2)CC1 (stereo unspecified) reads 18.7 µM (inactive)

Memo: Cc1c(C(=O)CSc2nc3ccccc3[nH]2)c(=O)n(-c2ccccc2)n1C , reported GI50: 41.1 µM (inactive)

// field: GI50; key: CCOC(=O)C1=C(C)N(NC(N)=O)C2(N)N(NC(N)=O)C(C)=C(C(=O)OCC)C12C(=O)OCC (stereo unspecified) ; value = > 100 µM (inactive)

In plain terms, CC(C)C[C@H]1[C@@H](OCc2ccccc2)COS(=O)(=O)N1[C@H](C)c1ccccc1 has a documented GI50 of 20.6 µM (inactive)

The molecule listed as C#CCSc1cnc2ccccc2c1Sc1c[nH]c2ccccc2c1=O shows GI50 equal to 23.4 µM (inactive)

GI50 reading for CC(C)C12C=CC(C)(CC1)n1c(=O)c3cc4ccccc4cc3c(=O)n12 (stereo unspecified) : 46.2 µM (inactive)

So for C/N=C1\CC2c3cc(OC)c(OC)cc3CCN2C2=C1C(=O)CC(C)(C)C2 (stereo unspecified) , the logged GI50 turned out to be > 100 µM (inactive)

GI50 in this record for COc1cc(/C=C(\C#N)c2ccccn2)cc(Br)c1O : 31.8 µM (inactive)

Per the record, O=[N+]([O-])c1cc(-c2nc(-c3ccccc3)c(-c3ccccc3)[nH]2)c(O)c([N+](=O)[O-])c1 has GI50 of 33 µM (inactive)

So for CC(C)(Oc1ccc(Cl)cc1)C(=O)N(C(=O)N1CCN(c2ccccc2)CC1)c1ccccc1 , the logged GI50 turned out to be 26.7 µM (inactive)

Form: molecule = CC1(C)CCC(C)(C)c2c1ccc(O)c2Cc1c(O)ccc2c1C(C)(C)CCC2(C)C ; GI50 = 2.21 µM (inactive)

For C=CCCCCCCCCC(=O)NS(=O)(=O)c1ccccc1 the molecule record lists GI50 as > 100 µM (inactive)

The recorded GI50 for entry CC(=O)C(O)N1C(=O)C=CC1=O (stereo unspecified) equals 17.6 µM (inactive)

Sample O=c1ccn2n1CCCCC2 ; GI50 observed: > 100 µM (inactive)

* * *

# Tested on: XF498
# measurement description: NCI tumour cell line growth inhibition, 48 h
Active and inactive are the calls of the source. Cut-off read from the data, not from the text of the source: active = GI50 up to about 1.1 µM and inactive = higher.
Please state which outcome applies, choosing from label 1 for active, label 0 for inactive

I'd appreciate the recorded outcome for CCn1c2c(c3ccccc31)[C@@H](c1ccc(Cl)cc1)CC1C(=O)N(c3ccccc3)C(=O)C21 (stereo partly specified) from this test.
label 0

Would you mind telling me which call this test gave O=c1[nH]cc(OCC(F)(F)F)c(=O)[nH]1 ?
label 0

What did the test return for Cc1nc(-c2nc(C)c(C(=O)NN(C)C)s2)sc1C(=O)NN(C)C ?
label 0

# fetch the recorded call for CCOC(=O)C1=C(C)N(NC(N)=O)C2(N)N(NC(N)=O)C(C)=C(C(=O)OCC)C12C(=O)OCC (stereo unspecified) here
label 0

Which outcome did this test record for the compound O=C1C(Cl)=C(c2ccc([N+](=O)[O-])cc2)C(=O)c2c(O)cccc21 ?
label 1

Give the logged outcome of this assay for the following compound: O=[N+]([O-])c1nccn1COCCBr
label 0

* * *

# Test system: UACC-62
# measurement description: NCI tumour cell line growth inhibition, 48 h
Calls of active or inactive are those of the source. Cut-off read from the data, not from the text of the source: active = GI50 up to about 1.1 µM and inactive = higher.
Your answer must be one of the following: active, inactive

Short answer needed: outcome of this test for COC1N(C2CC(O)C(CO)O2)C(=O)NC(=O)C1(F)Br (centres undefined) ?
inactive

Would you mind telling me which call this test gave CC1=Cc2cccc(C)c2C(=O)C1=O ?
inactive

Recorded call for CCCCCCCCCC/C=C/CC(=O)SCCNC(=O)CCNC(=O)[C@@H](O)C(C)(C)COP(=O)(O)OP(=O)(O)OCC1OC(n2cnc3c(N)ncnc32)C(O)C1OP(=O)(O)O (some centres undefined) ?
inactive

Query: recorded result category for CN(C)c1ccc(/C=C(/NC(=O)c2ccccc2)C(=O)Nc2ccccc2C(=O)O)cc1 in this test
inactive

# outcome recorded in this test, key = COc1c(C(=O)/C(=N/Nc2ccc(C(=O)O)cc2)C(C)=O)c(O)cc2occc12
inactive

Per the records of this test, what outcome belongs to COc1ccc(C(=O)Cc2ccc(Cl)cc2)cc1OC ?
inactive

Recorded test outcome, item CC1(C)CC(=O)C(CC2C(=O)c3ccccc3C2=O)C(=O)C1
inactive

Field: outcome | Entry: COc1cccc2c1C(=O)c1c(O)c3c(c(O)c1C2=O)C[C@@](O)(C(C)O)C[C@@H]3OC1CC(N)C(O)C(C)O1 (some centres undefined)
inactive

Short answer needed: outcome of this test for COC(=O)C1CC=C(SC(=O)c2ccccc2)N1C(=O)c1ccccc1 (centres undefined) ?
inactive

Hi, do you know how O=C1Nc2ccccc2C(=O)/C1=C/NC(=S)NCc1ccccc1 came out in this test?
inactive

What did this assay record as the result for CC1(C)C(=O)c2ccccc2OC1N1CCN(C2Oc3ccccc3C(=O)C2(C)C)CC1 (centres undefined) ?
inactive

Record request — test call for CN(C)CCn1c2c(c3ccccc31)CCc1ccccc1-2
inactive

Recorded test outcome, item CC(NCCS(=O)(=O)O)C(=O)O (centres undefined)
inactive

Test call, this compound: Cc1cc(NS(=O)(=O)c2ccc(NC(=O)c3ccc(Cl)c4c(Nc5ccc(S(N)(=O)=O)cc5)c5ccccc5nc34)cc2)no1
inactive

Assay outcome for COc1cc2c(c(OC)c1OC)-c1ccc(SC)c(=O)cc1C(CC(=O)Oc1cccc(C#N)c1)C2 (centres undefined) : what was it?
active

Hi, do you know how COC(=O)CNC(=O)CCC(C)[C@H]1CCC2C3C(C[C@H](OC(C)=O)[C@@]21C)[C@@]1(C)CCC2(C[C@H]1C[C@H]3OC(C)=O)OOC1(CCCCC1)OO2 (some centres undefined) came out in this test?
inactive

Each compound tested received a call. Report the one for N#Cc1c(-c2ccc(Cl)cc2)c(C#N)c(=O)n(NS(=O)(=O)c2ccccc2)c1S .
inactive

Recorded test call requested for C=CCN1CCC(c2cc(C(=O)OCC)[nH]c2-c2cc(C)no2)C1=O (centres undefined)
inactive

How did this test come out for C=C1C(=O)OC2/C=C(\CO)C3OC3C3OC3(C)CC(OC(=O)/C(=C/C)COC(C)=O)C12 (centres undefined) ?
inactive

Check the results log: what was the call for C=CCC(C)(C(=O)NCCC)C(=O)c1ccccc1O (centres undefined) ?
inactive

Look up the recorded call for CCCCCCc1cc2cc(-c3cn4ccsc4n3)c(=O)oc2cc1O in this test.
inactive

What is the recorded call for this compound in the test? Cc1c2cc[n+](C)c(C)c2cc2c1[nH]c1ccccc12
inactive

Fill in: this test's call for COc1cc(Br)c(CC2(C#N)c3ccccc3C3C(N2C(=O)c2ccccc2)C3(Cl)Cl)cc1OC (centres undefined) is ___
inactive

Please indicate how the test categorized Cc1c(N=C(S)Nc2ccc(Cl)cc2)c(=O)n(-c2ccccc2)n1C .
inactive

Query: recorded result category for C=C1CC[C@@]2(C)[C@@H]([C@@H]1C)[C@H]1CC[C@@H]3[C@@]4(C)CC[C@H](O)C(C)(C)[C@@H]4CC[C@@]3(C)[C@]1(C)C[C@@H]2O in this test
inactive

Name the outcome recorded for COC(=O)C1=C(C(=O)OC)SC2(S1)C(C(=O)OC)=C(C(=O)OC)Sc1c2ssc1=O in the assay.
active

State the result this test recorded for Cc1ccc([N+](=O)[O-])cc1NC(=O)/C(=N/NC(=S)NN)C1SC(=S)NC1=O (centres undefined) .
inactive

Kindly provide the recorded test outcome for the following compound: OCCCCOC(c1ccccc1)(c1ccccc1)c1ccccc1
inactive

What classification did NCCC1(N)CCNCC1 end up with in this test?
inactive

Record request — test call for COC(=O)Nc1nc2cc(Br)ccc2[nH]1
inactive

Can you look up the reported call for O=C(O)CNS(=O)(=O)c1ccc(NC(=O)Nc2ccccc2)cc1 for me?
inactive

Record lookup: outcome of this test for CCOC(=O)C1CCC(=O)N1C(=O)c1ccccc1Cl (centres undefined) ?
inactive

Any idea what this test logged for COc1ccc(NC(=O)/C(=N\NC(=O)C[n+]2ccccc2)c2c(O)c3ccc(O)cc3oc2=O)c([N+](=O)[O-])c1 ?
inactive

Tell me the assay call for COc1cc(OC)c(C2c3cc4c(cc3OC(N3CCOCC3)C2C)OCO4)c(OC)c1 (centres undefined) please.
inactive
